- measurement protocol: Permeability through the monolayer of Caco-2 cells
- Assay type: in vitro ADME
- experimental conditions: human, read-out: efflux (Papp B-A/Papp A-B)
Entries and their efflux ratio at 2 h, 10 μM
readout kind: efflux ratio at 2 h, 10 μM

• C=CC(=O)N1CCC[C@@H](n2nc(-c3ccc(C(=O)Nc4ccccn4)cc3)c3c(N)ncc(OC)c32)C1 = 0.61
• C=CC(=O)N1CC[C@@H](n2nc(-c3ccc(Oc4ccncc4)cc3)c3cncc(Cl)c32)C1 = 0.18
• C=CC(=O)N1CCC[C@@H](n2nc(-c3ccc(Oc4cccnc4C#N)cc3)c3cncc(F)c32)C1 = 0.1
• C=CC(=O)N1CC[C@H](n2nc(-c3ccc(Oc4ccncc4)cc3)c3cncc(Cl)c32)C1 = 0.23
• C=CC(=O)N1CCC[C@@H](n2nc(-c3ccc(C(=O)Nc4ncccc4F)cc3)c3cncc(Cl)c32)C1 = 0.45
• C=CC(=O)N1CCC[C@@H](n2nc(-c3ccc(Oc4cncc(C(N)=O)c4)cc3)c3cncc(Cl)c32)C1 = 1.38
• C=CC(=O)N1CCC[C@@H](n2nc(-c3ccc(Oc4ccncc4)cc3)c3c(N)ncc(Cl)c32)C1 = 0.1
• C=CC(=O)N1CCC[C@@H](n2nc(-c3ccc(Oc4ccncc4)cc3)c3c(N)ncc(C#N)c32)C1 = 0.4
• C=CC(=O)N1CCC[C@@H](n2nc(-c3ccc(Oc4cccnc4C#N)cc3)c3cncc(Cl)c32)C1 = 0.86
• CC#CC(=O)N1CC(Cn2nc(-c3ccc(Oc4ccncc4)cc3)c3cncc(Cl)c32)C1 = 0.11
• C=CC(=O)N1CCC[C@@H](n2nc(-c3ccc(Oc4ccncc4C#N)cc3)c3c(N)ncc(Cl)c32)C1 = 0.57
• C=CC(=O)N1CCC[C@@H](n2nc(-c3ccc(Oc4ccncc4C#N)cc3)c3cncc(C#N)c32)C1 = 0.62
• C=CC(=O)N1CCC[C@@H](n2nc(-c3ccc(Oc4ccncc4C#N)cc3)c3cncc(F)c32)C1 = 0.51
• C=CC(=O)N1CCC[C@@H](n2nc(-c3ccc(Oc4ccncc4)cc3)c3cncc(C#N)c32)C1 = 0.5
• C=CC(=O)N1CCC[C@@H](n2nc(-c3ccc(Oc4ccncc4)cc3)c3cncc(F)c32)C1 = 0.18

* * *

Property: efflux ratio at 2 h, 10 μM; scope: individual compounds
- measurement protocol: Permeability through the monolayer of Caco-2 cells
- Assay type: in vitro ADME
- experimental conditions: human, read-out: efflux (Papp B-A/Papp A-B)
readout kind: efflux ratio at 2 h, 10 μM

* C=CC(=O)N1CCC[C@@H](n2nc(-c3ccc(C(=O)Nc4ccccn4)cc3)c3cncc(C#N)c32)C1 | 0.17
* C=CC(=O)N1CCC[C@@H](n2nc(-c3ccc(C(=O)Nc4cc(C(F)(F)CC)ccn4)cc3)c3c(N)ncc(Cl)c32)C1 | 0.19
* C=CC(=O)N1CCC[C@@H](n2nc(-c3ccc(Oc4cccnc4C#N)cc3)c3cncc(C#N)c32)C1 | 0.29

* * *

- measurement protocol: General cytotoxicity on HepG2 cells (CC50; therapeutic index CC50 HepG2/IC50 Mino)
- Type: cell-based
- experimental conditions: human, HepG2 cells (hepatocellular carcinoma); Table 11; 72 hours, Alamar Blue
readout kind: CC50 at 72 h (µM)

* C=CC(=O)N1CCC[C@@H](n2nc(-c3ccc(Oc4ccncc4)cc3)c3c(N)ncc(Cl)c32)C1 | 39.6
* C=CC(=O)N1CCC[C@@H](n2nc(-c3ccc(Oc4ccncc4)cc3)c3cncc(C#N)c32)C1 | 50.4
* C=CC(=O)N1CCC[C@@H](n2nc(-c3ccc(Oc4ccccc4)cc3)c3c(N)ncnc32)C1 [Ibrutinib, ibrutinib, reference compound] | 54.9
* C=CC(=O)N1CCC[C@@H](n2nc(-c3ccc(Oc4ccncc4)cc3)c3c(N)ncc(C#N)c32)C1 | 64
* C=CC(=O)N1CCC[C@@H](n2nc(-c3ccc(Oc4ccncc4)cc3)c3cncc(Cl)c32)C1 | 27.1

* * *

- Tested on: Z-138 (mantle cell lymphoma)
- measurement protocol: Antiproliferative activity, Z-138 cells (Alamar Blue)
- Assay type: cell-based
- experimental conditions: Homo sapiens, Table 10, 72 h, average of several tests
- Experimental: Antiproliferative activity of BTK inhibitors was measured in cell-based bioassay on B-cells cultures: Mino (mantle cell lymphoma, ATCC® CRL-3000™), Z-138 (mantle cell lymphoma, ATCC® CRL-3001™) and DOHH2 (follicular lymphoma, Creative Bioarray CSC-C0219) using cell viability reagent Alamar Blue (Invitrogen, #DAL 1100). […]
pIC50: −log10 of the molar value.
Overview of reported pIC50 across a group of compounds:
readout kind: pIC50

- C=CC(=O)N1CCC[C@@H](n2nc(-c3ccc(Oc4cccnc4C#N)cc3)c3cncc(F)c32)C1 [BCD-BTK-230]: 4.84
- C=CC(=O)N1CCC[C@@H](n2nc(-c3ccc(-n4ccc(=O)cc4)c(F)c3)c3cncc(Cl)c32)C1 [BCD-BTK-205]: 4.60
- CC#CC(=O)N1CC(Cn2nc(-c3ccc(Oc4ccncc4)cc3)c3cncc(Cl)c32)C1 [BCD-BTK-261]: 5.30
- C=CC(=O)N1CCC[C@@H](n2nc(-c3ccc(C(=O)Nc4cc(C(F)(F)CC)ccn4)cc3)c3cncc(F)c32)C1 [BCD-BTK-214]: 4.05
- C=CC(=O)N1CCC[C@@H](n2nc(-c3ccc(-n4ccc(=O)cc4)cc3F)c3cncc(Cl)c32)C1 [BCD-BTK-204]: 4.68
- C=CC(=O)N1CCC[C@@H](n2nc(-c3cnc(-n4ccc(=O)cc4)nc3)c3c(N)ncc(Cl)c32)C1 [BCD-BTK-74]: 4.75
- C=CC(=O)N1CCC[C@@H](n2nc(-c3ccc(C(=O)Nc4cccc(F)n4)cc3)c3c(N)ncc(Cl)c32)C1 [BCD-BTK-250]: 5.49
- C=CC(=O)N1CC[C@H](n2nc(-c3ccc(Oc4ccncc4)cc3)c3cncc(Cl)c32)C1 [BCD-BTK-266]: 4.90
- C=CC(=O)N1CCC[C@@H](n2nc(-c3ccc(-n4ccc(=O)cc4)nc3)c3c(N)ncc(Cl)c32)C1 [BCD-BTK-76]: 4.71
- C=CC(=O)N1CCC[C@@H](n2nc(-c3ccc(Oc4ccncc4C#N)cc3)c3cncc(F)c32)C1 [BCD-BTK-217]: 4.86
- C=CC(=O)N1CCC[C@@H](n2nc(-c3ccc(C(=O)Nc4cc(C(F)(F)CC)ccn4)cc3)c3cncc(Cl)c32)C1 [BCD-BTK-215]: 5.10

* * *

- measurement protocol: Chemical stability in artificial gastric fluid (SGF without enzymes)
- experimental conditions: 10 μM in SGF without enzymes, pH=1.4, 37° C.
readout kind: Amount of substance in the sample in % (chemical stability) (%)

* C=CC(=O)N1CCC[C@@H](n2nc(-c3ccc(-n4ccc(=O)cc4)nc3)c3cncc(Cl)c32)C1 | 99.0
* C=CC(=O)N1CCC[C@@H](n2nc(-c3ccc(-n4ccc(=O)cc4)c(F)c3)c3cncc(Cl)c32)C1 | 100
* CC#CC(=O)N1CC(n2nc(-c3ccc(Oc4ccncc4)cc3)c3cncc(Cl)c32)C1 | 100
* C=CC(=O)N1CCC[C@@H](n2nc(-c3ccc(Oc4ccncc4C#N)cc3)c3cncc(C#N)c32)C1 | 97.4

* * *

Amount of substance in the sample in % (chemical stability) reference
- measurement protocol: Chemical stability in artificial gastric fluid (SGF without enzymes)
- experimental conditions: 10 μM in SGF without enzymes, pH=1.4, 37° C.
readout kind: Amount of substance in the sample in % (chemical stability) (%)

* CC#CC(=O)N1CC[C@H](Cn2nc(-c3ccc(C(=O)Nc4ccccn4)cc3)c3cncc(Cl)c32)C1 | 100
* C=CC(=O)N1CCC[C@@H](n2nc(-c3ccc(Oc4ccncc4)cc3)c3c(N)ncc(C#N)c32)C1 | 100
* C=CC(=O)N1CCC[C@@H](n2nc(-c3ccc(Oc4cccnc4C#N)cc3)c3cncc(Cl)c32)C1 | 96
* C=CC(=O)N1CC[C@H](n2nc(-c3ccc(Oc4ccncc4)cc3)c3cncc(Cl)c32)C1 | 100
* C=CC(=O)N1CCC[C@@H](n2nc(-c3ccc(-n4ccc(=O)cc4)cc3)c3c(Cl)c(O)cnc32)C1 | 91.0
* C=CC(=O)N1CCC[C@@H](n2nc(-c3ccc(Oc4ccncc4)cc3)c3c(N)ncc(Cl)c32)C1 | 100
* C=CC(=O)N1CCC[C@@H](n2nc(-c3ccc(C(=O)Nc4cccc(F)n4)cc3)c3cncc(Cl)c32)C1 | 100

* * *

- measurement protocol: Chemical stability in artificial gastric fluid (SGF without enzymes)
- experimental conditions: 10 μM in SGF without enzymes, pH=1.4, 37° C.
readout kind: Amount of substance in the sample in % (chemical stability) (%)

• C=CC(=O)N1CCC[C@@H](n2nc(-c3ccc(C(=O)Nc4ncccc4F)cc3)c3c(N)ncc(C#N)c32)C1 = 100
• C=CC(=O)N1CCC[C@@H](n2nc(-c3ccc(C(=O)Nc4ncccc4F)cc3)c3c(N)ncc(Cl)c32)C1 = 100
• C=CC(=O)N1CCC[C@@H](n2nc(-c3ccc(C(=O)Nc4ccccn4)cc3)c3c(N)ncc(OC)c32)C1 = 100
• C=CC(=O)N1CCC[C@@H](n2nc(-c3ccc(C(=O)Nc4cccc(F)n4)cc3)c3cncc(C#N)c32)C1 = 96.7
• C=CC(=O)N1CC(Cn2nc(-c3ccc(C(=O)Nc4ccccn4)cc3)c3cncc(Cl)c32)C1 = 100
• C=CC(=O)N1CCC[C@@H](n2nc(-c3ccc(C(=O)Nc4cccc(F)n4)cc3)c3cncc(F)c32)C1 = 100
• C=CC(=O)N1CCC[C@@H](n2nc(-c3ccc(-n4ccc(=O)cc4)cc3)c3c(N)ncc(Cl)c32)C1 = 100.0

Where these numbers come from: patent US20190352276A1
